target: Sodium channel protein type 5 subunit alpha (Homo sapiens); assay: Modulation of human Nav1.5 by automated patch clamp electrophysiology assay
Sequence (Q14524 whole entry): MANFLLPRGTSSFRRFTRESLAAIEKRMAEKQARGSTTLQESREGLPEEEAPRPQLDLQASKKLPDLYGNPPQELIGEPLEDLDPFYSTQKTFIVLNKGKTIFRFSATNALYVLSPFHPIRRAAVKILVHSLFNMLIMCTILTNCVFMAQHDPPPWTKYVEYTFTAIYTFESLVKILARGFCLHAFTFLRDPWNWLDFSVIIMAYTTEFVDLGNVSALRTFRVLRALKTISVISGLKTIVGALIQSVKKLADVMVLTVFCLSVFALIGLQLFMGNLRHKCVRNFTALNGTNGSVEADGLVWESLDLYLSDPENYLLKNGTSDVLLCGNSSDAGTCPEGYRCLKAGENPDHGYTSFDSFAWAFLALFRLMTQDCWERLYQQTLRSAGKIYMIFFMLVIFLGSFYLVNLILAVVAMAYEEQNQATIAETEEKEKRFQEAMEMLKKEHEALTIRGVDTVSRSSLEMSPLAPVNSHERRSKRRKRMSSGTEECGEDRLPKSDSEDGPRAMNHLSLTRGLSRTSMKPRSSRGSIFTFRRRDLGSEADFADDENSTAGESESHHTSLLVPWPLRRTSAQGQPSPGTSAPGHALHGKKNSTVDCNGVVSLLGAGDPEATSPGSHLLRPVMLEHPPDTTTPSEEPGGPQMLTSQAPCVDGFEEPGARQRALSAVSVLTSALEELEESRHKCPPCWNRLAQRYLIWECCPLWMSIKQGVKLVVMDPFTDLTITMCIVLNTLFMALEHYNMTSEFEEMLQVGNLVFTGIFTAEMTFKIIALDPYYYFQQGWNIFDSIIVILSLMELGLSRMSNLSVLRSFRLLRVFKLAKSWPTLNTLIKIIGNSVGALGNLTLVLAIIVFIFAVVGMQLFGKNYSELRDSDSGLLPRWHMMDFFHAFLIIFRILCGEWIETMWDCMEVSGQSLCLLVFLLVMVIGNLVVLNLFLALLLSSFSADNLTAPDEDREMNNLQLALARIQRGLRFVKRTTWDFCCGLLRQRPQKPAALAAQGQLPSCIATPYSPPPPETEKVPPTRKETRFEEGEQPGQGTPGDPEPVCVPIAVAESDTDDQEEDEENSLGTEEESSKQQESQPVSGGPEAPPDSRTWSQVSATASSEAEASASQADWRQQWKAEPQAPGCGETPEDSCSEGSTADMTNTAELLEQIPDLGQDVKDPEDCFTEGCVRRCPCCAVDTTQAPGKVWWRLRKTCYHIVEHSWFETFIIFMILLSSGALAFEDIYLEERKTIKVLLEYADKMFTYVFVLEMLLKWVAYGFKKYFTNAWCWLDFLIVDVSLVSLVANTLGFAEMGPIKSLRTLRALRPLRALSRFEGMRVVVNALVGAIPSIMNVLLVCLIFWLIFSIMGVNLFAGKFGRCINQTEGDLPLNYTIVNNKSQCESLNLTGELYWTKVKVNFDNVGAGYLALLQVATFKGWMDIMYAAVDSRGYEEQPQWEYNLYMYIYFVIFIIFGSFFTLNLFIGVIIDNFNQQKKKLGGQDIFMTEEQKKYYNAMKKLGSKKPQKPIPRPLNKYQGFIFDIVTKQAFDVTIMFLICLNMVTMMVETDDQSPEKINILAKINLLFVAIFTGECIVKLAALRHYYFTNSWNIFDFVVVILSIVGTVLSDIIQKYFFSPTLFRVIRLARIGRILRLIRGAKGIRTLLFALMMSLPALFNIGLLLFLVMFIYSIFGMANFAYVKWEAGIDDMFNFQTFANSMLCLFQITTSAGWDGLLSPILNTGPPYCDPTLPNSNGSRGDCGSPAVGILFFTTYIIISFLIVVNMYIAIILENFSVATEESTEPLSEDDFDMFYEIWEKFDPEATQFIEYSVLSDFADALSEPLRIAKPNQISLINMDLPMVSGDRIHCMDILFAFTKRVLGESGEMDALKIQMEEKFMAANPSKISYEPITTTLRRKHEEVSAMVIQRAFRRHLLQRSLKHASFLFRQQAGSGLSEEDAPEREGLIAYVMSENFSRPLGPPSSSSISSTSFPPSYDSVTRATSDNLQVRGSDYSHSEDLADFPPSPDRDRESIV
Would you kindly list IC50 for each of these compounds?

Lookup: Can you look up the measured IC50 of Nc1nc2c(s1)C[C@@H](NC(=O)c1cc(Br)c[nH]1)CC2 for me?
Found: 21 µM

Lookup: Consider the compound shown here: Cn1cccc1C(=O)N[C@H]1CCc2nc(N)sc2C1 What is its recorded IC50?
Found: > 30 µM

Lookup: Fill in: IC50 of Nc1nc2c(s1)CC(CNC(=O)c1cc(Br)c(Br)[nH]1)CC2 (stereo not drawn) is ___
Found: > 30 µM
